Data origin: ChEMBL document CHEMBL4033712

# System: COLO 205
# assay-summary: Anticancer activity against human COLO205 cells assessed as cell growth at 10 uM after 48 hrs by sulforhodamine B assay relative to control
# Type: functional
# condition-summary: COLO 205, 48 h, read-out: Activity
Mark 1 for reported growth at 10 µM of 30% or greater; mark -1 for anything smaller.

| molecule | target-entity | discrete-label |
| --- | --- | --- |
| C=C1CC[C@@H]2[C@](C)(COC(C)=O)[C@H](OC(C)=O)CC[C@@]2(C)[C@H]1CC(Nc1ccc(S(=O)(=O)Nc2cc(C)on2)cc1)C1=CCOC1=O (stereo partly specified) | COLO 205 | -1 |
| C=C1CC[C@@H]2[C@](C)(COC(C)=O)[C@H](OC(C)=O)CC[C@@]2(C)[C@H]1CC(Nc1ccc(S(=O)(=O)Nc2nc(C)cc(C)n2)cc1)C1=CCOC1=O (stereo partly specified) | COLO 205 | 1 |
| C=C1CC[C@@H]2[C@](C)(COC(C)=O)[C@H](OC(C)=O)CC[C@@]2(C)[C@H]1CC(Nc1ccc(S(=O)(=O)Nc2nccs2)cc1)C1=CCOC1=O (stereo partly specified) | COLO 205 | -1 |
| C=C1CC[C@@H]2[C@](C)(COC(C)=O)[C@H](OC(C)=O)CC[C@@]2(C)[C@H]1CC(Nc1ccc(S(=O)(=O)Nc2ccc(Cl)nn2)cc1)C1=CCOC1=O (stereo partly specified) | COLO 205 | -1 |
| C=C1CC[C@@H]2[C@](C)(COC(C)=O)[C@H](OC(C)=O)CC[C@@]2(C)[C@H]1CC(Nc1ccc(S(=O)(=O)Nc2ncccn2)cc1)C1=CCOC1=O (stereo partly specified) | COLO 205 | -1 |
| C=C1CC[C@@H]2[C@](C)(COC(C)=O)[C@H](OC(C)=O)CC[C@@]2(C)[C@H]1CC(Nc1ccc(S(=O)(=O)Nc2nccc(C)n2)cc1)C1=CCOC1=O (stereo partly specified) | COLO 205 | -1 |

---

# Tested on: IGROV-1
# assay-summary: Anticancer activity against human IGROV1 cells assessed as cell growth at 10 uM after 48 hrs by sulforhodamine B assay relative to control
# Format: functional
# condition-summary: IGROV-1, 48 h, read-out: Activity

| molecule | target-entity | result-unit | growth at 10 µM |
| --- | --- | --- | --- |
| C=C1CC[C@@H]2[C@](C)(COC(C)=O)[C@H](OC(C)=O)CC[C@@]2(C)[C@H]1CC(Nc1ccc(S(=O)(=O)Nc2nccs2)cc1)C1=CCOC1=O (stereo partly specified) | IGROV-1 | % | 12.6 |
| C=C1CC[C@@H]2[C@](C)(COC(C)=O)[C@H](OC(C)=O)CC[C@@]2(C)[C@H]1CC(Nc1ccc(S(=O)(=O)Nc2cc(C)on2)cc1)C1=CCOC1=O (stereo partly specified) | IGROV-1 | % | 62.6 |
| C=C1CC[C@@H]2[C@](C)(COC(C)=O)[C@H](OC(C)=O)CC[C@@]2(C)[C@H]1CC(Nc1ccc(S(=O)(=O)Nc2nc(C)cc(C)n2)cc1)C1=CCOC1=O (stereo partly specified) | IGROV-1 | % | 81.5 |
| C=C1CC[C@@H]2[C@](C)(COC(C)=O)[C@H](OC(C)=O)CC[C@@]2(C)[C@H]1CC(Nc1ccc(S(=O)(=O)Nc2ncccn2)cc1)C1=CCOC1=O (stereo partly specified) | IGROV-1 | % | 7.21 |
| C=C1CC[C@@H]2[C@](C)(COC(C)=O)[C@H](OC(C)=O)CC[C@@]2(C)[C@H]1CC(Nc1ccc(S(=O)(=O)Nc2nccc(C)n2)cc1)C1=CCOC1=O (stereo partly specified) | IGROV-1 | % | 25.8 |
| C=C1CC[C@@H]2[C@](C)(COC(C)=O)[C@H](OC(C)=O)CC[C@@]2(C)[C@H]1CC(Nc1ccc(S(=O)(=O)Nc2ccc(Cl)nn2)cc1)C1=CCOC1=O (stereo partly specified) | IGROV-1 | % | 43.3 |
